experimental conditions: in DMF, 283.15 K
outcome measure: solubility (mole fraction)

P. CC(C)CC(N)C(=O)O (racemic)
Q. CC[C@H](C)[C@H](N)C(=O)O (racemic)
Task item: For the two items P and Q , which reports the higher solubility (mole fraction) value? Identify your pick by its label.
Reply: Q
(Q: 0.00024, P: 0.00012)

====

experimental conditions: in water, 308.15 K
outcome measure: solubility (mole fraction)

A. CC(C)CC(N)C(=O)O (racemic)
B. CC[C@H](C)[C@H](N)C(=O)O (racemic)
Task item: Would you mind telling me which has the lower recorded solubility (mole fraction) between A and B ? Identify your selection by its label.
Reply: A
(A: 0.00155, B: 0.0034)

====

experimental conditions: in water, 313.15 K
outcome measure: solubility (mole fraction)

1. CC[C@H](C)[C@H](N)C(=O)O (racemic)
2. CC(C)CC(N)C(=O)O (racemic)
Task item: // pick min by solubility (mole fraction): 1 , 2 Write down the label of the entry you select.
Reply: 2

====

experimental conditions: in water, 288.15 K
outcome measure: solubility (mole fraction)

a. CC[C@H](C)[C@H](N)C(=O)O (racemic)
b. CC(C)CC(N)C(=O)O (racemic)
Task item: Lower value for measured solubility (mole fraction)? Options: a , b Indicate your choice by writing its label.
Reply: b

====

experimental conditions: in DMF, 318.15 K
outcome measure: solubility (mole fraction)

>  <compound>
CC(C)CC(N)C(=O)O (racemic)

>  <outcome measure>
solubility (mole fraction)

>  <endpoint value>
0.00023

$$$$
>  <compound>
CC[C@H](C)[C@H](N)C(=O)O (racemic)

>  <outcome measure>
solubility (mole fraction)

>  <endpoint value>
0.00031

$$$$

====

experimental conditions: in water, 293.15 K
outcome measure: solubility (mole fraction)

1. CC[C@H](C)[C@H](N)C(=O)O (racemic)
2. CC(C)CC(N)C(=O)O (racemic)
Task item: Would you let me know which has the greater solubility (mole fraction) value, 1 or 2 ? # answer = label of selected item
Reply: 1
(1: 0.0029, 2: 0.00128)

====

experimental conditions: in water, 318.15 K
outcome measure: solubility (mole fraction)

a. CC[C@H](C)[C@H](N)C(=O)O (racemic)
b. CC(C)CC(N)C(=O)O (racemic)
Task item: Please compare: a and b . Report which one has the smaller solubility (mole fraction) value. Indicate your choice by writing its label.
Reply: b
(b: 0.00178, a: 0.0038)

====

experimental conditions: in water, 283.15 K
outcome measure: solubility (mole fraction)

I. CC(C)CC(N)C(=O)O (racemic)
II. CC[C@H](C)[C@H](N)C(=O)O (racemic)
Task item: Identify the entry with the smaller solubility (mole fraction): I or II . Lab note: record the label of whichever item you select.
Reply: I

====

experimental conditions: in DMF, 293.15 K
outcome measure: solubility (mole fraction)

P. CC[C@H](C)[C@H](N)C(=O)O (racemic)
Q. CC(C)CC(N)C(=O)O (racemic)
Task item: Please choose the item with the lower solubility (mole fraction) value from this pair: P and Q Kindly give the label for the entry you pick.
Reply: Q

====

experimental conditions: in DMF, 278.15 K
outcome measure: solubility (mole fraction)

a. CC[C@H](C)[C@H](N)C(=O)O (racemic)
b. CC(C)CC(N)C(=O)O (racemic)
Task item: Kindly compare a with b and tell me which has the lower solubility (mole fraction) figure. # respond with the chosen item's label
Reply: b
